Provenance of the data: PubChem BioAssay (NCI)

- Tested on: NCI-H23 lung
- assayOverview: NCI tumour cell line growth inhibition, 48 h
Outcome: rule met for TGI of at least 10 µM; rule not met for anything lower.

Use the examples below as a reference point.
compound	answerLabel
CO/C(=N\N=C\c1cccc(Cl)c1)c1ccncc1	rule met
COc1ccc(/C=c2\[nH]c3nc(=O)c(N4CCOCC4)c(N)n3c2=O)cc1	rule met
CCc1n(Cc2ccc3ccccc3n2)cc[n+]1Cc1ccc2ccccc2n1	rule not met
O=C(O)C1C2CCC(O2)C1C(=O)N1CCCCC1 (stereo not given)	rule met
NCCCOCC(=O)O	rule met

Task: Check this compound for TGI at or above 10 µM: CC1CC2CC(=O)CC3(C1)C2CCCN3CCCO (stereo not given)
Result: rule met

Task: Check this compound for TGI at or above 10 µM: OCC1OC(n2cnc3cncnc32)C(O)C1O (stereo not given)
Result: rule not met

Task: Check this compound for TGI at or above 10 µM: C=CC1[C@H]2COC(C)(C)O[C@@H]2CC(=O)C1(C)C (stereo not given in full)
Result: rule met

Task: Check this compound for TGI at or above 10 µM: `Cc1ccc(C(=O)N/N=C(\N=Nc2cccc(Cl)c2)c2ccc(N(CCC#N)CCC#N)cc2C)cc1`
Result: rule met

Task: Check this compound for TGI at or above 10 µM: `O=C1C=C(NCCNC(=S)Nc2ccccc2)c2nccc3c2c1nc1ccccc13`
Result: rule met

Task: Check this compound for TGI at or above 10 µM: `N=C1N(S(=O)(=O)c2ccccc2)[C@@H](Cc2ccccc2)[C@H](c2ccccc2)C1(c1ccccc1)c1ccccc1`
Result: rule met

Task: Check this compound for TGI at or above 10 µM: `CCn1c(C(=O)N(C2CC2)C2CC2)cc2c3c(ncn3C)c(Nc3cc(C)n(C)n3)nc21`
Result: rule met

Task: Check this compound for TGI at or above 10 µM: `O=C1C=CC(=O)C(CNc2ccc(C(=O)OC34CC5CC(CC(C5)C3)C4)cc2)=C1`
Result: rule met

Task: Check this compound for TGI at or above 10 µM: `C[C@H](NC(=O)[C@@H]1CSSC[C@@H](NC(=O)c2nc3ccccc3cc2O)C(=O)NCC(=O)N1C)c1ccccc1`
Result: rule met

* * *

Measured TGI of individual entries
- System: UACC-62 melanoma
- assayOverview: NCI tumour cell line growth inhibition, 48 h
Give just the numeric value; µM need not be written.

# example entries with known answers
compound	readoutKind	measValue
COc1cc(/C=C/C(=O)c2c(=O)o[nH][n+]2-c2ccccc2)ccc1[O-]	TGI	13.7
C=C(CCCCCCCCC)CC(=O)SCCNC(=O)CCNC(=O)C(O)C(C)(C)COP(=O)(O)OP(=O)(O)OCC1OC(n2cnc3c(N)ncnc32)C(O)C1OP(=O)(O)O (centres undefined)	TGI	46.1
CC1(C)CC[C@H](Nc2ncc(C(F)(F)F)c(-c3c[nH]c4c(P(C)(C)=O)c(C#N)ccc34)n2)CN1	TGI	2.19
COc1ccccc1/C=C1\CCC(CCN(C)C)(C2=CCCC2)C1=O (centres undefined)	TGI	23.5
O=[N+]([O-])c1c(Br)cc(Br)c2c1Nc1c(ccc(Cl)c1Cl)S2	TGI	33.1

API: the following record is the query input.
Task: Quick one: TGI for `CCOC(=O)C1=C(c2ccccc2)N(C)c2ccccc2S1` ?
Result: 53.2
